- Test system: Escherichia coli
- ASSAY_TEXT: Antibacterial activity against 5 x 10^5 CFU/mL Escherichia coli ATCC 25922 after 72 hrs by CLSI M07-A8 broth microdilution method
- Assay type: functional
- EXPERIMENTAL_SETUP: ATCC 25922, 72 h
METRIC: MIC (µM)
Report the value in µM with no unit label.

Some solved entries appear below for comparison.
>>> print(df.to_string())
                              smiles_record  metric  reported_result
0  CCCCCCCCCCCCCCCCOc1cc(C[N+](C)(C)C)ccc1C[N+](C)(C)C.[Br-].[Br-]     MIC               63
1                   CCCCCCCCCCCC[N+](C)(C)C     MIC              250

As a next step, examine the compound that follows.
Let me check: `CCCCCCCCCCCCOc1cc(C[N+](C)(C)C)ccc1C[N+](C)(C)C` , system Escherichia coli, measured MIC is 500
